Sourced from ChEMBL document CHEMBL1144692

# target: Nicotinic acetylcholine receptor alpha1 subunit (Heliothis virescens, UniProt O46128)
# Sequence (O46128 whole entry): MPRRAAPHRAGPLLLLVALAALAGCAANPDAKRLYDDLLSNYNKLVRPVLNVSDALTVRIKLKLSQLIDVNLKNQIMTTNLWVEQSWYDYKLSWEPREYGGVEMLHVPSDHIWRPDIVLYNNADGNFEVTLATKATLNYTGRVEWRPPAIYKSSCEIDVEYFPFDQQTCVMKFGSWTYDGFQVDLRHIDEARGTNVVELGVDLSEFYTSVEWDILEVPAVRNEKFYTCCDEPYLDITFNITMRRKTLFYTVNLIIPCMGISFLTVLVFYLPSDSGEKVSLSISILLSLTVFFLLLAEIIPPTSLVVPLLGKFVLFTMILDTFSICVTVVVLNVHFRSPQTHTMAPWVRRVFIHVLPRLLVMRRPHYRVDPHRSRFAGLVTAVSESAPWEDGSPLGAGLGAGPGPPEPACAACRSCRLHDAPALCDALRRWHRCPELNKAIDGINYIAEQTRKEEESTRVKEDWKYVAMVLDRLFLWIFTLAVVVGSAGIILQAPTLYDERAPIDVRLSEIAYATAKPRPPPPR
# assay.explanation: Antagonist activity at nAChR in Heliothis virescens neuronal cells by voltage clamp technique
recorded.metric: IC50
Please format your answer as a value with the unit trailing.

Look up IC50 of COC1=C(C)C(=O)O/C1=C(\O)[C@@H](C)[C@H]1[C@@H](O)CCCN2[C@H]1CC[C@H]2[C@@H]1C[C@H](C)C(=O)O1 and report it.
10 µM

====

# target: Nicotinic acetylcholine receptor alpha1 subunit (Heliothis virescens, UniProt O46128)
# Sequence (O46128 whole entry): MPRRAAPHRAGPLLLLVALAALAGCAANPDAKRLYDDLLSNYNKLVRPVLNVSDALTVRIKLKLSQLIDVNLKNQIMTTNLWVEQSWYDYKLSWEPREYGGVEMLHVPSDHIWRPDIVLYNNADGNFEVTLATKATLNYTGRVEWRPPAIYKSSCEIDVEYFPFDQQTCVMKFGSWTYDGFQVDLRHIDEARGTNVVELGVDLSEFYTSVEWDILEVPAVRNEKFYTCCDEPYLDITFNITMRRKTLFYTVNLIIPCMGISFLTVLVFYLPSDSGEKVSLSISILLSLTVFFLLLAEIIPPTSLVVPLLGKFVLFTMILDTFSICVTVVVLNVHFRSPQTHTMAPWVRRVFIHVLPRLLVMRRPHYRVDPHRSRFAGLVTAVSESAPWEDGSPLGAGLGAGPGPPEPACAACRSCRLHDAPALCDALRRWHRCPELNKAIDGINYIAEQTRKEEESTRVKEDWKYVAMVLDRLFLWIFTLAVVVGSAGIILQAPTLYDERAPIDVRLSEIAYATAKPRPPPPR
# assay.explanation: Agonist activity at nAChR in Heliothis virescens neuronal cells by voltage clamp technique
# key: entry, value: EC50
Quick note: unit goes after the number.

Solved cases below.
{"compound": "CCCC[C@]12[C@H]3C[C@H]4[C@H]5[C@H](C)C(C6OC(=O)C(C)=C6OC)O[C@]5(O3)[C@@H]1[C@H](O)CN42 (stereo partly drawn) [6beta-hydroxystemofoline]", "EC50": "157 nM"}
{"compound": "CCCC[C@]12[C@@H]3C[C@H]4[C@H]5[C@H](C)C(C6OC(=O)C(CO)=C6OC)O[C@]5(O3)[C@@H]1CCN42 (stereo partly drawn) [16-hydroxystemofoline]", "EC50": "12 nM"}

Now let's try a different one.
Give the reported EC50 for this compound. CCCC[C@@]12C3CCN1[C@H]1C[C@H]2O[C@@]32O/C(=C3\OC(=O)C(C)=C3OC)[C@@H](C)[C@H]12
50 nM
